- system_name: human RXFP1 (Homo sapiens)
- Construct: expressed in transfected cells
- Sequence (Q9HBX9 1-757): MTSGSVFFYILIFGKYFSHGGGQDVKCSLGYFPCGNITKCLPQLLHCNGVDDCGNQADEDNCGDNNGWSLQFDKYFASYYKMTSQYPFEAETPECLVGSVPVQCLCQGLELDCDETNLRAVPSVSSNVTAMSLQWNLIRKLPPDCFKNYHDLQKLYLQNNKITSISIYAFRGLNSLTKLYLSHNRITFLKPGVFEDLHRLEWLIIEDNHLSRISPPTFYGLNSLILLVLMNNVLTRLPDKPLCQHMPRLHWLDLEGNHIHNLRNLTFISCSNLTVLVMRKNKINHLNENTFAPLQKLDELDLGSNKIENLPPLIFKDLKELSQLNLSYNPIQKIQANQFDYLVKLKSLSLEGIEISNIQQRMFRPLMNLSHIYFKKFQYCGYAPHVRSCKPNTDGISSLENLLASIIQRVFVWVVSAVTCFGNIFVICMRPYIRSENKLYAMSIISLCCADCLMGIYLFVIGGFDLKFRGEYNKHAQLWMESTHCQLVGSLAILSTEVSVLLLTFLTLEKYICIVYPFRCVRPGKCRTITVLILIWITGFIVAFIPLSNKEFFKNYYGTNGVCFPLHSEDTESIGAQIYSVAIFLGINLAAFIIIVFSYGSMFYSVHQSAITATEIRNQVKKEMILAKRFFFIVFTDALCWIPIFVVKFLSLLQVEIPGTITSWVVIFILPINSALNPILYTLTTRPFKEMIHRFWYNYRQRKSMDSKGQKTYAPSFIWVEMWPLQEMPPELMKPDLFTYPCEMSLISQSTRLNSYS
- assay_protocol: hRXFP1 HEK293 cAMP assay (HTRF)
- Type: cell-based
- run_conditions: HEK293 cells stably expressing human RXFP1; phenylcyclohexyl (tetraline) examples
- Procedure: RXFP1 Cyclic Adenosine Monophosphate (cAMP) Assays. […] The level of intracellular cAMP was determined using the HTRF HiRange cAMP assay reagent kit (Cisbio) according to manufacturer's instructions. […] After a 1 h room temperature incubation, time-resolved fluorescence intensity was measured using the Envision (Perkin-Elmer) at 400 nm excitation and dual emission at 590 nm and 665 nm. […]
Kindly apply the following: TRUE if EC50 is less than 60 nM, FALSE in every other case.

# molecule, label_value
measured = [
    ("COc1ccc(C2=NOC3CC(CO)CC23)cc1C(=O)Nc1cc2c(cc1C(=O)Nc1ccc(F)c(C(F)(F)F)c1)CCCC2 (stereo not drawn) [Example 12]", "FALSE"),
    ("COc1ccc(-c2cc([C@H](OC(=O)NC3CC(F)(F)C3)C(F)(F)F)ccc2F)cc1C(=O)Nc1cc2c(cc1C(=O)Nc1ccc(F)c(C(F)(F)F)c1)CCCC2", "FALSE"),
    ("COc1ccc(-c2cc([C@H](O)C(F)(F)F)ccc2F)cc1C(=O)Nc1cc2c(cc1C(=O)Nc1ccc(F)c(C(F)(F)F)c1)CCCC2", "FALSE"),
    ("COc1ccc(-c2cc([C@H](OC(=O)NC3CCC3)C(F)(F)F)ccc2F)cc1C(=O)Nc1cc2c(cc1C(=O)Nc1ccc(F)c(C(F)(F)F)c1)CCCC2=O", "TRUE"),
    ("COc1ccc(-c2cc(C(NC(=O)C3CCOCC3)C(=O)O)ccc2F)cc1C(=O)Nc1cc2c(cc1C(=O)Nc1ccc(F)c(C(F)(F)F)c1)CCCC2 (single isomer, unassigned)", "TRUE"),
    ("COc1ccc(-c2cc(C(N)C(=O)O)ccc2F)cc1C(=O)Nc1cc2c(cc1C(=O)Nc1ccc(F)c(C(F)(F)F)c1)CCCC2 (single isomer, unassigned)", "FALSE"),
]

* * *

- system_name: human RXFP1 (Homo sapiens, UniProt Q9HBX9)
- Construct: expressed in transfected cells
- assay_protocol: hRXFP1 HEK293 cAMP assay (HTRF)
- Type: cell-based
- run_conditions: HEK293 cells stably expressing human RXFP1; phenylcyclopentyl examples
pEC50: −log10 of the molar value.
List of pEC50 values.

# molecule, pEC50
records = [
    ("COc1ccc(-c2cc(C(=O)O)ccc2F)cc1C(=O)Nc1cc2c(cc1C(=O)Nc1ccc(F)c(C(F)(F)F)c1)CCC2=O", 6.64),
    ("COc1ccc(-c2cc(C(=O)O)ccc2F)cc1C(=O)Nc1cc2c(cc1C(=O)Nc1ccc(F)c(C(F)(F)F)c1)CCC2O (racemic)", 5.57),
    ("COc1ccc(C2=NOC3CC(CO)CC23)cc1C(=O)Nc1cc2c(cc1C(=O)Nc1ccc(F)c(C(F)(F)F)c1)CCC2=O (single isomer, unassigned) [Example 28]", 6.80),
    ("COc1ccc(C2=NOC3CC(CO)CC23)cc1C(=O)Nc1cc2c(cc1C(=O)Nc1ccc(F)c(C(F)(F)F)c1)CCC2=O (single isomer, unassigned) [Example 27]", 7.47),
    ("COc1ccc(-c2cc(C(=O)O)ccc2F)cc1C(=O)Nc1cc2c(cc1C(=O)Nc1ccc(F)c(C(F)(F)F)c1)CCC2", 5.46),
    ("COc1ccc(-c2cc(C(NC(=O)C3CCOCC3)C(=O)O)ccc2F)cc1C(=O)Nc1cc2c(cc1C(=O)Nc1ccc(F)c(C(F)(F)F)c1)CCC2 (stereo not drawn)", 7.96),
]

* * *

- system_name: human RXFP1 (Homo sapiens)
- Construct: expressed in transfected cells
- Sequence (Q9HBX9 1-757): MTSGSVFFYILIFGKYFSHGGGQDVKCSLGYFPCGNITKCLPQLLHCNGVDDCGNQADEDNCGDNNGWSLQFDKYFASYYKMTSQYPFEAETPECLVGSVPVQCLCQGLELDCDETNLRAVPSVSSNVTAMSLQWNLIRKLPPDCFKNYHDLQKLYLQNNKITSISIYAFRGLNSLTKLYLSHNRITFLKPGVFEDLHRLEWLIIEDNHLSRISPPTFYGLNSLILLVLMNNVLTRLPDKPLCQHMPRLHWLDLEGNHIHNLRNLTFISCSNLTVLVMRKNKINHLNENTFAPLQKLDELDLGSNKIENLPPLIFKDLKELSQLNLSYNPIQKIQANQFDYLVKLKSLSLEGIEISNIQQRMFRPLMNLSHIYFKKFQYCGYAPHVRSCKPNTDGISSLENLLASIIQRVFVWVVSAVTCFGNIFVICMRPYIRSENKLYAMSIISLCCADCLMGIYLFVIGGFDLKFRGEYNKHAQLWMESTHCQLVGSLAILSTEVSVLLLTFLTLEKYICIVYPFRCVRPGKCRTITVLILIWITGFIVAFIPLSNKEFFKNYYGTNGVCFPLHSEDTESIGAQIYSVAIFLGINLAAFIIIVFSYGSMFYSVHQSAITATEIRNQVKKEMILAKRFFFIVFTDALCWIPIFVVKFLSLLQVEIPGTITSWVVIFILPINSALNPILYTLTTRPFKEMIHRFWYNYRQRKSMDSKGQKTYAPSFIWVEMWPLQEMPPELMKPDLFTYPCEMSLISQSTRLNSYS
- assay_protocol: hRXFP1 HEK293 cAMP assay (HTRF)
- Type: cell-based
- run_conditions: HEK293 cells stably expressing human RXFP1; phenylcyclohexyl (tetraline) examples
// reported EC50 for each item listed

# compound, system_name, EC50 [nM]
rows = [
    ("COc1ccc(-c2cnn(CC(=O)O)c2)cc1C(=O)Nc1cc2c(cc1C(=O)Nc1ccc(F)c(C(F)(F)F)c1)CCCC2", "human RXFP1 (Homo sapiens)", 1300),
    ("COc1ccc(C2=NOC3CC(CO)CC23)cc1C(=O)Nc1cc2c(cc1C(=O)Nc1ccc(F)c(C(F)(F)F)c1)CCCC2 (single isomer, unassigned) [Example 13]", "human RXFP1 (Homo sapiens)", 19),
    ("COc1ccc(C2=NOC3CC(CO)CC23)cc1C(=O)Nc1cc2c(cc1C(=O)Nc1ccc(F)c(C(F)(F)F)c1)CCCC2 (single isomer, unassigned) [Example 14]", "human RXFP1 (Homo sapiens)", 82),
    ("COc1ccc(-c2noc(CCO)c2CCO)cc1C(=O)Nc1cc2c(cc1C(=O)Nc1ccc(F)c(C(F)(F)F)c1)CCCC2", "human RXFP1 (Homo sapiens)", 5000),
    ("COc1ccc(-c2cc(C(=O)O)ccc2F)cc1C(=O)Nc1cc2c(cc1C(=O)Nc1ccc(F)c(C(F)(F)F)c1)CCCC2=O", "human RXFP1 (Homo sapiens)", 1100),
    ("COc1ccc(-c2cc(CC(=O)NCC3CCC3)ccc2F)cc1C(=O)Nc1cc2c(cc1C(=O)Nc1ccc(F)c(C(F)(F)F)c1)CCCC2", "human RXFP1 (Homo sapiens)", 22),
    ("COc1ccc(-c2cc([C@H](OC(=O)NC3CCC3)C(F)(F)F)ccc2F)cc1C(=O)Nc1cc2c(cc1C(=O)Nc1ccc(F)c(C(F)(F)F)c1)CCCC2", "human RXFP1 (Homo sapiens)", 15),
    ("COc1ccc(-c2cc([C@H](OC(=O)Nc3ccccc3)C(F)(F)F)ccc2F)cc1C(=O)Nc1cc2c(cc1C(=O)Nc1ccc(F)c(C(F)(F)F)c1)CCCC2", "human RXFP1 (Homo sapiens)", 33),
    ("COc1ccc(-c2cc(C(=O)O)ccc2F)cc1C(=O)Nc1cc2c(cc1C(=O)Nc1ccc(F)c(C(F)(F)F)c1)CCCC2", "human RXFP1 (Homo sapiens)", 390),
]
